Source: PubChem BioAssay

Experiment: budding yeast growth modifiers under rapamycin – strain BY4716, OD600, 96 h, primary screen (AID 1091); note: test concentration not given here
Details: S. cerevisiae BY4716 + rapamycin, higher = more signal, called active from +8 up or from −8 down
Activity calls are given as the source filed them.

{"columns": ["compound", "z-score"],
 "data": [
  ["CN(C)CCCCNC(=O)[C@H]1C[C@H]2C(=O)N[C@@H](CCCC[N+](C)(C)C)C(=O)N2[C@H]1c1cccc(OCCO)c1", "-0.702 (inactive)"],
  ["COCCCNC(=O)[C@]1(CCS(=O)(=O)c2ccccc2)N=C(c2ccc(OCCCO)cc2)O[C@@H]1c1ccccc1", "0.0389 (inactive)"],
  ["C=C(C(=O)CC[C@H](OC(=O)c1cccnc1)c1ccc(OCCO)cc1)C(C)C", "0.905 (inactive)"],
  ["COC(=O)[C@@]1(Cc2ccccc2)[C@H]2c3cc(C(=O)N(C)C)n(Cc4ccc(O)c(OC)c4)c3C[C@H]2CN1C(=O)c1ccccc1", "0.836 (inactive)"],
  ["COCCOC(=O)N1C(=O)[C@@]2(c3cc(C#CCNC(N)=O)ccc31)[C@H](C(N)=O)[C@H]1C(=O)O[C@H](c3ccccc3)[C@H](c3ccccc3)N1[C@@H]2c1ccc(OCCO)cc1", "1.98 (inactive)"],
  ["C[C@@H]1ON(c2ccccc2)[C@H](c2ccccc2)[C@H]1C(=O)N1C(=O)OC[C@H]1Cc1ccccc1", "0.125 (inactive)"],
  ["CC(C)CNC(=O)[C@@]1(C)c2ccccc2C(=O)N(Cc2ccccc2)[C@H]1c1ccc(CO)cc1", "-0.879 (inactive)"],
  ["C=CCN1C(=O)[C@@]2(O[C@@H](CCO)[C@H]([Si](C)(C)c3ccc(OC)cc3)[C@H]2C)c2cc(NC(=O)[C@H](C)O)ccc21", "-0.0361 (inactive)"],
  ["CCC[C@@H]1C[C@@]1(CCC)[C@@H](NC(=O)c1ccco1)c1ccc(Cl)cc1", "0.194 (inactive)"],
  ["Cc1ccc(S[C@]2(C(=O)NCCN3CCOCC3)CC(=O)N(C3Cc4ccccc4C3)[C@@H]2c2ccc(CO)cc2)cc1", "-0.0611 (inactive)"],
  ["C=CCOC(=O)[C@@H]1[C@H]2C(=O)O[C@H](c3ccccc3)[C@H](c3ccccc3)N2[C@H](c2ccc(OCCOC(=O)[C@@H]3C[C@@H]4C(=O)N5CCC[C@H]5C(=O)N4[C@@H]3c3cccc(OCCO)c3)cc2)[C@@]12C(=O)Nc1ccc(I)cc12", "2.18 (inactive)"],
  ["CCOC(=O)C1=CC[C@@H](c2ccccc2)N(S(=O)(=O)c2ccc(C)cc2)[C@H]1C=C(C)C", "4 (inactive)"],
  ["COC(=O)[C@]1(Cc2ccccc2CN=[N+]=[N-])N=C(c2ccc(OCCCO)cc2)O[C@@H]1c1ccccc1CN=[N+]=[N-]", "33.5 (active)"],
  ["C[C@]12C(=O)N(CCCO)[C@@H]3C(=O)N(c4ccc(Cl)cc4)CC=CC31O[C@@H]1/C=C\\CCCOC(=O)C12 (some centres undefined)", "-0.488 (inactive)"]
]}

----------
Catalogue of molecules with associated composite z-score
Assay: binders from COS7 lysate, DM2A8 probe, primary screen, torsin A project, cell lysate, small-molecule microarray, fluorescence 635/667 (AID 1065)
Conditions: higher = more signal, COS7 lysate expressing mutant human TOR1A
observed-property: composite z-score

{"columns": ["molecule", "observed-property", "measured"],
 "data": [
  ["CCCC=C(CCC)[C@@H](NC(=O)Cc1ccccc1)c1ccc(C(=O)OC)cc1", "composite z-score", -0.0985],
  ["O=C1N(Cc2ccccc2)c2ccccc2[C@H]2OC(c3ccc(OCCCO)cc3)=N[C@@]12CCS(=O)(=O)c1ccccc1", "composite z-score", 0.527],
  ["Cc1ccc(S[C@]2(C(=O)O)CC(=O)N(Cc3ccccc3C(F)(F)F)[C@@H]2c2ccc(CO)cc2)cc1", "composite z-score", -0.138],
  ["O=C1O[C@H](c2ccccc2)[C@H](c2ccccc2)N2[C@H]1[C@@H](C(=O)N1CCCCCCC1)[C@]1(C(=O)Nc3ccccc31)[C@H]2c1ccc(O)cc1", "composite z-score", 2.71],
  ["COc1ccc(C(=O)Nc2ccc(CN3C(=O)[C@@]4(O[C@@H](CC(=O)N5Cc6ccccc6C[C@H]5CO)[C@H]([Si](C)(C)c5ccc(OC)cc5)[C@H]4C)c4ccccc43)cc2)cc1", "composite z-score", 0.17],
  ["COCCCNC(=O)[C@@]1(Cc2ccccc2I)c2ccccc2C(=O)N(Cc2ccccc2Cl)[C@H]1c1ccc(CO)cc1", "composite z-score", 0.229],
  ["C=CCNC(=O)[C@H]1[C@@H]2C(=O)O[C@@H](c3ccccc3)[C@@H](c3ccccc3)N2[C@@H](c2ccc(OCCO)cc2)[C@]12C(=O)N(C(=O)OCCOC)c1ccc(C#CC3=CCCCC3)cc12", "composite z-score", 0.967],
  ["COCCCNC(=O)[C@@]1(Cc2ccccc2)COC(c2ccc(OCCCO)cc2)=N1", "composite z-score", -0.321],
  ["C[N+](C)(C)CCCCCCNC(=O)[C@H]1C[C@H]2C(=O)N3CCC[C@H]3C(=O)N2[C@H]1c1cccc(OCCO)c1", "composite z-score", 2.05],
  ["CCCNC(=O)[C@@H]1c2ccccc2C(=O)N(CC23CC4CC(CC(C4)C2)C3)[C@H]1c1ccc(CO)cc1", "composite z-score", -0.101],
  ["COC(=O)C(CC#Cc1ccc2c(c1)[C@]1(C(=O)N2)[C@H](C(=O)N2CCc3cc(OC)c(OC)cc3C2)[C@H]2C(=O)O[C@H](c3ccccc3)[C@H](c3ccccc3)N2[C@@H]1c1ccc(OCCO)cc1)C(=O)OC", "composite z-score", 1.53],
  ["COc1ccc([Si](C)(C)[C@@H]2[C@@H](CCO)O[C@]3(C(=O)N(Cc4ccc(N5C(=O)c6ccccc6Oc6ccccc65)cc4)c4ccccc43)[C@H]2C)cc1", "composite z-score", -0.589],
  ["CC1(C)[C@@H]2CC(C(O)C3C=CC4C(=O)N(c5ccccc5)C(=O)C4N3Nc3ccccc3F)=C[C@@H]1C2 (stereo partly specified)", "composite z-score", 0.159],
  ["CC(C)c1ccc(NN2C(C(O)c3ccccn3)C=CC3C(=O)N(c4ccccc4)C(=O)C32)cc1 (stereo unspecified)", "composite z-score", 0.205],
  ["Cc1ccc(-c2cccc(=O)o2)cc1", "composite z-score", -0.549],
  ["NC(=O)NCC#Cc1ccc2c(c1)[C@]1(C(=O)N2)[C@H](c2ccc(OCCO)cc2)N2[C@H](c3ccccc3)[C@H](c3ccccc3)OC(=O)[C@H]2[C@@H]1C(=O)N1CCN(c2ncccn2)CC1", "composite z-score", 0.936]
]}

----------
Molecular target: Pro-neuregulin-1, membrane-bound isoform (Homo sapiens) (UniProt Q02297)
Sequence (Q02297 whole entry, looked up, canonical isoform): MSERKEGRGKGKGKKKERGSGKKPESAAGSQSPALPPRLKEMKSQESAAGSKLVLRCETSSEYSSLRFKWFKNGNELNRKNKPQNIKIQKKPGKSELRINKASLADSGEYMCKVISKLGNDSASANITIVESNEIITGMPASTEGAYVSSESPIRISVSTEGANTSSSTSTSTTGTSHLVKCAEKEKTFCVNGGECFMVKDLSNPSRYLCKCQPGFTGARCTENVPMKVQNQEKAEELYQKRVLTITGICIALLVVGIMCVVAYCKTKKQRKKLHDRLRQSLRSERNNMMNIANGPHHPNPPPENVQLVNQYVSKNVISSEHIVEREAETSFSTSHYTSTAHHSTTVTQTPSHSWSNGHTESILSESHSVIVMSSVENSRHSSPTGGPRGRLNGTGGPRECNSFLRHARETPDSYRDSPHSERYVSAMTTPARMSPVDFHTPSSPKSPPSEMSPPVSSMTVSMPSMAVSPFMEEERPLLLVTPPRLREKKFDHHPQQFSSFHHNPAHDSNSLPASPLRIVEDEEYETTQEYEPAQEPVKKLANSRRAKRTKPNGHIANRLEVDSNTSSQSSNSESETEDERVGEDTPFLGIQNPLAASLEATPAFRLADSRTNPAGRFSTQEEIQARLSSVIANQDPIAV
Experiment: small molecules binding neuregulin-1 protein – biochemical, small-molecule microarray, fluorescence 635/667, psychiatric disease protein project, primary screen (AID 1075);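 note: score combines 667 nm spot fluorescence with signal to noise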
Conditions: NRG1 binding, 635 nm fluorescence, higher = more signal
observed-property: composite z-score

{"columns": ["sample-smiles", "observed-property", "measured"],
 "data": [
  ["CC(C)N1C(=O)c2ccccc2[C@](C)(C(=O)O)[C@@H]1c1ccc(CO)cc1", "composite z-score", 0.752],
  ["O=C1O[C@@H](c2ccccc2)[C@@H](c2ccccc2)N2[C@@H](c3ccc(O)cc3)[C@]3(C(=O)Nc4ccc(C#CC5=CCCCC5)cc43)[C@@H](C(=O)Nc3nc4ccccc4s3)[C@H]12", "composite z-score", 1.34],
  ["COCCOC(=O)N1C(=O)[C@@]2(c3cc(C#CCNC(N)=O)ccc31)[C@H](C(=O)N1CCCCCCC1)[C@H]1C(=O)O[C@H](c3ccccc3)[C@H](c3ccccc3)N1[C@@H]2c1ccc(OCCO)cc1", "composite z-score", 0.446]
]}

----------
Parameter composite z-score: see the listing below.
Tested on: Noggin (protein binding on small-molecule microarray)
Assay: small molecules binding Noggin protein – biochemical, 635/667 nm fluorescence, primary screen (AID 1095);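 note: score merges 667 nm feature fluorescence with signal to noise over triplicate slides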
Conditions: 635 nm fluorescence, higher = more signal
observed-property: composite z-score

{"columns": ["compound", "measured"],
 "data": [
  ["COCCCNC(=O)[C@@H]1c2ccccc2C(=O)N(c2ccc(C)cn2)[C@H]1c1ccc(CO)cc1", -1.73],
  ["COC(=O)[C@@]1(Cc2ccc(OC)cc2)[C@H]2c3cc(C(=O)N(C)C)n(Cc4cc(C)n(C)n4)c3C[C@H]2CN1C(=O)c1ccccc1", 0.119],
  ["COCCOC(=O)N1C(=O)[C@@]2(c3cc(C#CCC(C(=O)OC)C(=O)OC)ccc31)[C@H](C(=O)N1CCCCCCC1)[C@H]1C(=O)O[C@H](c3ccccc3)[C@H](c3ccccc3)N1[C@@H]2c1ccc(O)cc1", 1.37],
  ["O=C1C[C@@](C(=O)NCc2ccccc2)(c2ccc([N+](=O)[O-])cc2)[C@@H](c2ccc(CO)cc2I)N1C1CCCCC1", 0.924],
  ["CCC[C@@H]1C[C@@]1(CCC)[C@@H](NC(=O)c1ccco1)c1ccc(Cl)cc1", -0.174],
  ["[N-]=[N+]=NCc1ccccc1C[C@]1(C(=O)NCCN2CCOCC2)COC(c2ccc(OCCCO)cc2)=N1", 0.516],
  ["CC(C)C(CO)N1C(=O)[C@@H]2[C@H]3C(=O)OCC=C[C@H]3OC23C=CCN(Cn2nnc4ccccc42)C(=O)[C@@H]13 (stereo partly specified)", -2.09],
  ["COCCOC(=O)N1C(=O)[C@@]2(c3cc(C#CCC(C(=O)OC)C(=O)OC)ccc31)[C@H](c1ccc(OCCO)cc1)N1[C@H](c3ccccc3)[C@H](c3ccccc3)OC(=O)[C@H]1[C@@H]2C(N)=O", 0.543],
  ["COc1ccc([Si](C)(C)[C@@H]2[C@@H](CCO)O[C@]3(C(=O)N(Cc4cccc(N5C(=O)COc6ccccc65)c4)c4ccccc43)[C@H]2C)cc1", -0.142],
  ["COCCOC(=O)N1C(=O)[C@@]2(c3cc(C#CC4(O)CCCCCC4)ccc31)[C@H](C(=O)N1CCN(c3ncccn3)CC1)[C@H]1C(=O)O[C@H](c3ccccc3)[C@H](c3ccccc3)N1[C@@H]2c1ccc(O)cc1", 0.287],
  ["CC1CC/C=C\\[C@H]2OC34C=CCN(Cc5ccccc5)C(=O)[C@H]3N(CCO)C(=O)[C@@H]4C2C(=O)O1 (stereo partly specified)", -0.585]
]}
